- Tested on: SK-MEL-28 melanoma
- protocol.description: NCI tumour cell line growth inhibition, 48 h
For each entry below, report its TGI value.

Tell me the measured TGI of O=C(NCCCCCCCCCCCCNC(=O)c1cccc2ccccc12)c1cccc2ccccc12 , please. > 100 µM

Tell me the measured TGI of Nc1nc2c3nc(Nc4ccccc4)sc3nc(=S)n2c2sc(Nc3ccccc3)nc12 , please. > 100 µM

Tell me the measured TGI of O=c1ccn(CC2(CO)CCC2)c(=O)[nH]1 , please. > 100 µM

Tell me the measured TGI of C/C(=N\NC(=S)N1CCCCC1)c1ccccn1 , please. 6.66 µM

Tell me the measured TGI of CCCCCCCCCCCCCCCCCc1cccc(OCOCCOC)c1C(=O)O , please. 38.2 µM

Tell me the measured TGI of COc1ccc(N=Nc2c(C)c(C#N)c(=S)n(C3OC(CO)C(O)C(O)C3O)c2-c2ccccc2)cc1 (stereo not drawn) , please. 63.6 µM

Tell me the measured TGI of O=C(CC(=O)N1N=C(N2CCCCC2)CC1c1ccccc1)Nc1ccccc1 (stereo not drawn) , please. > 100 µM

Tell me the measured TGI of CN(C)C=Nc1ccn(CCO)c(=O)n1 , please. > 100 µM

###

- System: CAKI-1 renal
- protocol.description: NCI tumour cell line growth inhibition, 48 h; in the data active = GI50 below about 0.43 µM; inactive = the rest
Your response should consist of one outcome taken from yes (active), no (inactive)

Any idea what this test logged for CCSCC1CC(O)(c2ccccc2)CC(c2ccc(F)cc2)O1 (stereo unspecified) ? no

Any idea what this test logged for COC[C@@H](N=C1NC(=O)/C(=C/c2ccc3ncccc3c2)S1)c1ccccc1 ? no

Any idea what this test logged for COc1ccc(C2=N[C@@H](Cc3ccccc3)C(=O)Nc3ccsc32)cc1 ? no

Any idea what this test logged for CC(=O)c1ccc2c(c1)c1cc(C(C)=O)ccc1n2CCNC(C)C ? yes

Any idea what this test logged for OCCN1CCN(CCCN2c3ccccc3Sc3ccc(Cl)cc32)CC1 ? no

Any idea what this test logged for CCCCCCCCCCCCOC1C(CNC(=O)C2OC3OC(C)(C)OC3C2NC(=O)Nc2ccc(CC(=O)OC)cc2)OC2OC(C)(C)OC21 (stereo unspecified) ? no

###

For each entry below, report its TGI value.
- Tested on: RXF 393 renal
- protocol.description: NCI tumour cell line growth inhibition, 48 h

Tell me the measured TGI of Cc1nc2ccc(Nc3nc(Cl)nc(N4CCOCC4)n3)cc2n1Cc1ccccc1 , please. 3.58 µM

Tell me the measured TGI of O=c1c2cc(I)ccc2nc(SCc2nncs2)n1Cc1ccccc1 , please. 81.6 µM

Tell me the measured TGI of CC(Nc1ncc2c(n1)-c1ccccc1OC2)C(=O)O (centres undefined) , please. > 100 µM

Tell me the measured TGI of CC(C)C1=CC(=O)C(C)(C2C(O)CC3(C)C4CC=C5C(CCC(OC6OC(CO)C(O)C(O)C6OC6OC(C)C(O)C(O)C6O)C5(C)C)C4(C)C(=O)CC23C)O1 (centres undefined) , please. > 100 µM

Tell me the measured TGI of O=S(=O)(NCCCNc1nccc(-c2c(-c3ccc(O)cc3)nc3sccn23)n1)c1ccc(F)cc1 , please. > 100 µM

Tell me the measured TGI of COc1ccc(C2N(c3ccc(F)cc3)C(=O)N3C(c4ccc(OC)cc4)N(c4ccc(F)cc4)C(=O)N23)cc1 (centres undefined) , please. > 100 µM

Tell me the measured TGI of Cn1c(=O)[nH]c2nncnc2c1=O , please. 123 µM

Tell me the measured TGI of CC1=Nc2ccccc2S/C1=C(/C)NNS(=O)(=O)c1ccc(C)cc1 , please. > 100 µM

Tell me the measured TGI of O=C(CC(=O)N1N=C(N2CCCCC2)CC1c1ccccc1)Nc1ccccc1 (centres undefined) , please. > 100 µM

FYI, the data here is from PubChem BioAssay (NCI).
